Just for reference, the supplement of paper PMC10600219 is where these values come from.

- System: NCI-H2228 alectinib-DTP
- assay_notes: cell viability relative to vehicle (fraction of vehicle); NCI-H2228 is an ALK-positive lung cancer line and DTP means drug-tolerant persister; higher = less growth inhibition
- measurement_conditions: 100 nM; treatment time 6 days
The full ranking holds about 2,800 compounds; the median of “cell viability relative to vehicle” is about 0.98, and the lowest 2% start at about 0.45. The sample holds the lowest values, similar compounds and a random draw of the others, so the mix is not that of the screen.
Provide the reported cell viability of each item.

Task item: Recorded cell viability for `C[C@H]1CCC/C=C/[C@@H]2C[C@H](O)C[C@H]2[C@H](O)/C=C/C(=O)O1` , please?
Reply: 0.0894

Task item: And `CC1=C[C@H]2[C@@]3(O)[C@H](C)[C@@H](O)[C@]4(O)[C@H]([C@@H]3C=C(CO)C[C@]2(O)C1=O)C4(C)C` ?
Reply: 0.999

Task item: And `N#C/C=C1/C=C[C@@H](O)[C@H](O)[C@H]1O[C@@H]1O[C@H](CO)[C@@H](O)[C@H](O)[C@H]1O` ?
Reply: 0.984

Task item: And CC[C@@]1(O)C(=O)OCc2c1cc1n(c2=O)Cc2cc3ccccc3nc2-1 [(S)-(+)-Camptothecin] ?
Reply: 0.36
